# procedureDetails: total protein half-life in vivo (active degradation + dilution); higher = more stable protein
# conditions: E. coli NCM3722 delta-smpB; growth: N-lim chemostat; doubling time 6 h
propertyName: total protein half-life in vivo

sequenceData	experimentalValue
MMKTMRIAAIPGDGIGKEVLPEGIRVLQAAAERWGFALSFEQMEWASCEYYSHHGKMMPDDWHEQLSRFDAIYFGAVGWPDTVPDHISLWGSLLKFRREFDQYVNLRPVRLFPGVPCPLAGKQPGDIDFYVVRENTEGEYSSLGGRVNEGTEHEVVIQESVFTRRGVDRILRYAFELAQSRPRKTLTSATKSNGLAISMPYWDERVEAMAENYPEIRWDKQHIDILCARFVMQPERFDVVVASNLFGDILSDLGPACTGTIGIAPSANLNPERTFPSLFEPVHGSAPDIYGKNIANPIATIWAGAMMLDFLGNGDERFQQAHNGILAAIEEVIAHGPKTPDMKGNATTPQVADAICKIILR	2.68 h
MVTSCTGHVLDNQRATTRGVFSSGSHLVTLHFQPHPFFSCVTDAVNGARSRFSAFYPKANYGLQGSQPSDVRAHNRAANGACDEYKQLKVLSMGRQKAVIKARREAKRVLRRDSRSHKQREEESVTSLVQMGGVEAIGMARDSRDTSPILARNEAQLHYLKAIESKQLIFATGEAGCGKTWISAAKAAEALIHKDVDRIIVTRPVLQADEDLGFLPGDIAEKFAPYFRPVYDVLVRRLGASFMQYCLRPEIGKVEIAPFAYMRGRTFENAVVILDEAQNVTAAQMKMFLTRLGENVTVIVNGDITQCDLPRGVCSGLSDALERFEEDEMVGIVRFGKEDCVRSALCQRTLHAYS [P0A9K1]	0.308 h
MSRRAGTPTAKKVTQLVNVEEHVEGFRQVREAHRRELIDDYVELISDLIREVGEARQVDMAARLGVSQPTVAKMLKRLATMGLIEMIPWRGVFLTAEGEKLAQESRERHQIVENFLLVLGVSPEIARRDAEGMEHHVSEETLDAFRLFTQKHGAK [P0A9F1]	5.06 h
MPFRSNNPITRDELLSRFFPQYHPVTTFNSGLSGGSFLIEHQGQRFVVRQPHDPDAPQSAFLRQYRALSQLPACIAPKPHLYLRDWMVVDYLPGAVKTYLPDTNELAGLLYYLHQQPRFGWRITLLPLLELYWQQSDPARRTVGWLRMLKRLRKAREPRPLRLSPLHMDVHAGNLVHSASGLKLIDWEYAGDGDIALELAAVWVENTEQHRQLVNDYATRAKIYPAQLWRQVRRWFPWLLMLKAGWFEYRWRQTGDQQFIRLADDTWRQLLIKQ	5.66 h
MFILWYSASSTFGKDSDIVMGVRAQQKEKTRRSLVEAAFSQLSAERSFASLSLREVAREAGIAPTSFYRHFRDVDELGLTMVDESGLMLRQLMRQARQRIAKGGSVIRTSVSTFMEFIGNNPNAFRLLLRERSGTSAAFRAAVAREIQHFIAELADYLELENHMPRAFTEAQAEAMVTIVFSAGAEALDVGVEQRRQLEERLVLQLRMISKGAYYWYRREQEKTAIIPGNVKDE [P0ACU5]	5.96 h

All values here come from the supplement of paper PMC11246515.
